Where do the numbers come from? From paper PMC5607274.

target.entity: human recombinant Yes [a.a. 2–543 (end)] (Homo sapiens, UniProt P07947)
Construct: human recombinant Yes [a.a; 2–543 (end)]; purchased BPS Bioscience 40488
Sequence (P07947 2-543): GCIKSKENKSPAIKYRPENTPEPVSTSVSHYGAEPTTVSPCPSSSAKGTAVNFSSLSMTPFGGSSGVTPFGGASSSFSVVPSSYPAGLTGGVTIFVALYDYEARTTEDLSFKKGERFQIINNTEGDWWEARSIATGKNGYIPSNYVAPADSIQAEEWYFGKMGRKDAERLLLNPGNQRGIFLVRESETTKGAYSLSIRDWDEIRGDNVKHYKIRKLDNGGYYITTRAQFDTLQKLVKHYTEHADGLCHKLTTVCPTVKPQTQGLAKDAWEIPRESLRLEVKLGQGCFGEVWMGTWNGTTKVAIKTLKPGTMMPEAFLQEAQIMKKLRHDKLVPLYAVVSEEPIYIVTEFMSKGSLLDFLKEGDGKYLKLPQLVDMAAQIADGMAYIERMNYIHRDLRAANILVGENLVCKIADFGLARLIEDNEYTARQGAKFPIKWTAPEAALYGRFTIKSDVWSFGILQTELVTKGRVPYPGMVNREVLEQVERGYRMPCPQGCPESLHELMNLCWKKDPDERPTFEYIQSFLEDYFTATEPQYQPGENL
procedure.text: ADP-Glo kinase assay, inhibition rates of Yes phosphorylation activity (first and second screening)
Type: biochemical
condition.set: first screening; mean of n = 4 wells; 10 μmol L−1 compound
Experimental: All inhibitory assays of the phosphorylation activity of Yes were performed in accordance with the Promega Technical Manual for the ADP-Glo™ Kinase Assay (Fitchburg, WI, USA. Catalog number: V9102). The human recombinant Yes [a.a. […] The screening was conducted in three steps consisting of the first screening, the second screening, and the IC50 determination, as can be illustrated in Fig. 1b. First, we determined the inhibition rates of the 1,991 compounds. […]
parameter.measured: First screening IR (inhibition rate) (%)
// note: answer is a bare numeric in %

Illustrative cases are given below, each with its answer.
# compound, result.value
records = [
    ("O=C(COC(=O)c1ccccc1NS(=O)(=O)c1ccc(F)cc1)NC1CCCc2ccccc21 (centres unmarked)", -7),
    ("Cc1cc(-c2cc(C(=O)Nc3ccc(N4CCN(C)CC4)nc3)c3cnn(C(C)C)c3n2)c(C)o1", 15),
    ("CC(C)c1ccc(Sc2ccc(N3CCC(C(=O)O)CC3)nn2)cc1", 1),
    ("C=CCN1C(=O)c2ccc(C(=O)OCc3cn4ccccc4n3)cc2C1=O", 29),
]

response.value for CN(C)C(=O)Cn1cc(NC(=O)c2ccc3cc[nH]c3c2)cn1 (field: First screening IR (inhibition rate)) = -5

response.value for CCCCN(C)c1ccc(S(C)(=O)=O)cc1S(C)(=O)=O (field: First screening IR (inhibition rate)) = 8

response.value for COC(=O)c1cc(S(=O)(=O)Oc2ccc3c(C(C)C)cc(=O)oc3c2)cn1C (field: First screening IR (inhibition rate)) = 1

response.value for Cc1nc(CN)ccc1C(=O)Nc1ccc(Oc2ccc(Cl)cc2Cl)c(F)c1.Cl (field: First screening IR (inhibition rate)) = -5

---

Each item that follows carries a reported First screening IR (inhibition rate).
target.entity: human recombinant Yes [a.a. 2–543 (end)] (Homo sapiens)
Construct: human recombinant Yes [a.a; 2–543 (end)]; purchased BPS Bioscience 40488
procedure.text: ADP-Glo kinase assay, inhibition rates of Yes phosphorylation activity (first and second screening)
Assay type: biochemical
condition.set: first screening; mean of n = 4 wells; 10 μmol L−1 compound
// note: answer is a bare numeric in %

Illustrative cases are given below, each with its answer.
# molecule, parameter.measured, units, result.value
records = [
    ("CC(=O)Nc1ccc(SCc2noc(-c3cccc(C)c3)n2)cc1 [Compound Z388276110]", "First screening IR (inhibition rate)", "%", 12),
    ("CCN(c1ccc(-c2csc(Nc3ccc(OC)cc3)n2)cc1)S(C)(=O)=O [Compound Z64779311]", "First screening IR (inhibition rate)", "%", -4),
    ("OCCn1ncc2c(NCCc3nnc4ccccn34)ncnc21 [Compound Z990848218]", "First screening IR (inhibition rate)", "%", -6),
    ("CC(C)N(c1ccccc1)c1ccc(NC(=O)COC(=O)c2c3c(nc4ccccc24)CCCC3)cc1 [Compound Z19690670]", "First screening IR (inhibition rate)", "%", 10),
    ("O=C(Nc1cc(N2CCCS2(=O)=O)ccc1O)c1cccc(C(F)(F)F)c1 [Compound Z573928840]", "First screening IR (inhibition rate)", "%", -18),
]

response.value for O=C(N/N=C/c1ccco1)c1cc(-c2ccc(Br)s2)[nH]n1 [Compound Z57393573] (field: First screening IR (inhibition rate)) = -9

response.value for CN1CCC(N(C)c2ccc(NC(=O)c3c(O)cc(F)cc3F)cc2)CC1 [Compound Z910632940] (field: First screening IR (inhibition rate)) = 6

response.value for CCN(CC)CCn1c(NC(=O)c2ccc(OCC(F)(F)F)nc2)nc2ccccc21 [Compound Z228032620] (field: First screening IR (inhibition rate)) = 14

---

target.entity: human recombinant Yes [a.a. 2–543 (end)] (Homo sapiens, UniProt P07947)
Construct: human recombinant Yes [a.a; 2–543 (end)]; purchased BPS Bioscience 40488
procedure.text: ADP-Glo kinase assay, inhibition rates of Yes phosphorylation activity (first and second screening)
Assay type: biochemical
condition.set: first screening; mean of n = 4 wells; 10 μmol L−1 compound
Each item that follows carries a reported First screening IR (inhibition rate).
// note: answer is a bare numeric in %

Illustrative cases are given below, each with its answer.
# compound, result.value
records = [
    ("CCCCC(CC)CN1C(=O)/C(=C/c2c(NCCCn3ccnc3)nc3c(C)cccn3c2=O)SC1=S (centres unmarked) [Compound Z56863942]", 0),
    ("CCN(CC)c1ccc(C(=O)NC(=S)Nc2nc(-c3cccs3)cs2)cc1 [Compound Z56787522]", -9),
    ("O=C(OCCc1cn[nH]c1)c1ncoc1-c1ccco1 [Compound Z1463415737]", 57),
    ("CC(C)c1ccc(C(=O)N2CCN(c3ccc(C#N)cn3)CC2)cc1 [Compound Z319076580]", -2),
    ("COc1ccc(Nc2ncnc(N)n2)cc1 [Compound Z56938001]", 14),
]

First screening IR (inhibition rate) on human recombinant Yes [a.a. 2–543 (end)] (Homo sapiens, UniProt P07947) for Cn1c(O)c(N=NC(=O)c2ccc(COc3ccccc3-c3ccccc3)cc2)c2ccccc21 [Compound Z44853786] is 9

First screening IR (inhibition rate) on human recombinant Yes [a.a. 2–543 (end)] (Homo sapiens, UniProt P07947) for CN1C/C(=C/c2ccc(-n3cncn3)cc2)c2nc3ccccc3c(C(=O)O)c2C1 [Compound Z285929216] is 1

First screening IR (inhibition rate) on human recombinant Yes [a.a. 2–543 (end)] (Homo sapiens, UniProt P07947) for O=C(c1ccc(OCC2CC2)cc1)N1CCC(c2nnc3n2CCC3)CC1 [Compound Z809056560] is 2

First screening IR (inhibition rate) on human recombinant Yes [a.a. 2–543 (end)] (Homo sapiens, UniProt P07947) for Cc1nc(-c2ccc(Br)cc2)nc(NCCO)c1C [Compound Z1037335626] is 13

First screening IR (inhibition rate) on human recombinant Yes [a.a. 2–543 (end)] (Homo sapiens, UniProt P07947) for Cc1sc2nc(CN3CCOCC3)nc(Oc3ccc(NC(=O)c4ccc(C(C)(C)C)cc4)cc3)c2c1C [Compound Z31089732] is -13

First screening IR (inhibition rate) on human recombinant Yes [a.a. 2–543 (end)] (Homo sapiens, UniProt P07947) for CC1CN(C(=O)C2CCS(=O)(=O)C2)c2cc(F)ccc2CN1C(=O)OC(C)(C)C (centres unmarked) [Compound Z1566941984] is -8

---

target.entity: human recombinant Yes [a.a. 2–543 (end)] (Homo sapiens, UniProt P07947)
Construct: human recombinant Yes [a.a; 2–543 (end)]; purchased BPS Bioscience 40488
procedure.text: ADP-Glo kinase assay, inhibition rates of Yes phosphorylation activity (first and second screening)
Assay type: biochemical
condition.set: first screening; mean of n = 4 wells; 10 μmol L−1 compound
parameter.measured: First screening IR (inhibition rate) (%)
// note: answer is a bare numeric in %

Illustrative cases are given below, each with its answer.
# molecule, units, result.value
measured = [
    ("COc1ccc(-c2cc(NC(=O)C3CCC(=O)N3)ccc2OC(F)F)cc1 (centres unmarked)", "%", -6),
    ("CCn1c(=O)c2c(nc3n(-c4ccc(N(C)C)cc4)c(C)cn23)n(C)c1=O", "%", 10),
    ("COc1cc(C(=O)Nc2c(C)cccc2C(C)C)ccc1OCc1c(C)noc1C", "%", 1),
    ("COc1cc(Cl)c(C)cc1NC(=O)CN(Cc1ccco1)S(=O)(=O)c1cccc(Cl)c1", "%", 38),
    ("CS(=O)(=O)c1ccc(C(=O)NCc2ccc(-n3ccnc3)c(F)c2)cc1", "%", -29),
    ("N#Cc1ccc(-c2cc(-c3ccc(Cl)cc3)c3ccccc3n2)cc1", "%", 6),
    ("CCN(c1cccnc1)S(=O)(=O)c1cc(S(C)(=O)=O)ccc1Cl", "%", -7),
]

response.value for NC(=O)c1cc(NC(=O)COC(=O)c2c3c(nc4ccccc24)/C(=C\c2ccccc2Cl)CC3)cc(C(N)=O)c1 (field: First screening IR (inhibition rate)) = 10

---

target.entity: human recombinant Yes [a.a. 2–543 (end)] (Homo sapiens)
Construct: human recombinant Yes [a.a; 2–543 (end)]; purchased BPS Bioscience 40488
procedure.text: ADP-Glo kinase assay, inhibition rates of Yes phosphorylation activity (first and second screening)
Assay type: biochemical
condition.set: first screening; mean of n = 4 wells; 10 μmol L−1 compound
Each item that follows carries a reported First screening IR (inhibition rate).
// note: answer is a bare numeric in %

Illustrative cases are given below, each with its answer.
# compound, First screening IR (inhibition rate) (%)
data = [
    ("O=C(/C=c1/[nH]c(=O)/c(=C\\c2ccc(Cl)cc2)s1)c1ccncc1", 8),
    ("Clc1ccccc1/C=C1\\CCCc2c1nc1ncnn1c2-c1ccccc1Cl", 6),
    ("CC(C)N(CCNC(=O)CCc1nnc2n(Cc3ccc(F)cc3)c(=O)c3ccccc3n12)Cc1ccco1", -10),
    ("Cn1ncc2c(N3CCCC3CO)ncnc21 (centres unmarked)", 3),
    ("CC1(C)CCCN(S(=O)(=O)CCCS(C)(=O)=O)CC1", -3),
    ("NCCN1C(=O)C2C3C=CC(C3)C2C1=O (centres unmarked)", 7),
]

response.value for CC1C/C(=C/c2ccc(C#N)cc2)c2nc3ccccc3c(C(=O)O)c2C1 (centres unmarked) (field: First screening IR (inhibition rate)) = -2

response.value for Cc1[nH]ncc1Nc1ccc2nccnc2n1 (field: First screening IR (inhibition rate)) = 6

response.value for C=CCn1c(SCc2cc(=O)n3ccsc3n2)nnc1-c1ccncc1 (field: First screening IR (inhibition rate)) = 4

response.value for COc1ccc(-n2cc(-c3ccccc3)c3c(NCCOCCO)ncnc32)cc1 (field: First screening IR (inhibition rate)) = -8

response.value for O=C(Nc1ccc(S(=O)(=O)Nc2nccs2)cc1)c1cnn(Cc2ccccc2)c1 (field: First screening IR (inhibition rate)) = 61

response.value for COc1ccc(-c2cc3c4ccccc4oc4nc(=N)c(C#N)c([nH]2)c43)cc1 (field: First screening IR (inhibition rate)) = 5

response.value for NC(=O)c1cc(-c2csc(NCc3ccccc3)n2)ccc1O (field: First screening IR (inhibition rate)) = 39

response.value for Cc1c(C(=O)N(C2CCC(C)CC2)C2CC2)cnn1-c1ccc(=O)[nH]n1 (centres unmarked) (field: First screening IR (inhibition rate)) = -8
